- Tested on: UO-31 renal
- ASSAY: NCI-60 one-dose screen, 48 h (100 = growth as untreated, 0 = no growth, -100 = all killed)
- RUN_PARAMETERS: 10 µM unless noted
This is part of a sample that, as a whole, favours compounds with a hit. Of some 83,000 tested, about 20% had one in any assay.
Consider the following compounds; for each one, report its growth.
Numbers only, in %.

INSERT INTO assay_data (compound, readout_number) VALUES
  ('O=C(Nc1ccc(NC(=O)c2cc(=O)[nH]c3ccccc23)cc1)Nc1cccc(Cl)c1', 65.3),
  ('N#Cc1c(-c2cccc([N+](=O)[O-])c2)nc(SCC(=O)c2ccc(Cl)cc2)[nH]c1=O', 80.6),
  ('COc1cc(/C=C\c2cc(/C=C\c3ccc(O)c(OC)c3)n(C(=O)COc3ccccc3)n2)ccc1O', 0.475),
  ('Cn1cc(CC2CC(=O)N(c3ccccc3)C2=O)sc1=NC(=O)c1ccccc1 (stereo not drawn)', 83.5),
  ('O=C1CC(=O)OC(c2ccc([N+](=O)[O-])cc2)O1', -88.2),
  ('CNCCn1c(=O)c2cc(OC)c(OC)cc2c2ccc3cc4c(cc3c21)OCO4', -66.4),
  ('CC(C)N1C(=O)/C(=C2\SC(=S)N(C(C)C)C2=O)SC1=S', 78.6),
  ('CC1(C)c2[nH]c3ccccc3c2C[C@]2(C)[C@H]3C(=O)C=C4[C@@H]5C[C@@](C)(C(N)=O)CC[C@]5(C)CC[C@@]4(C)[C@]3(C)CC[C@@H]12', 42.6),
  ('C[C@H]1[C@H](C)CC[C@]2(C(=O)NCC#CCN3CCN(C)CC3)CC[C@]3(C)C(=CC[C@@H]4[C@@]5(C)Cc6c([nH]c7ccccc67)C(C)(C)[C@@H]5CC[C@]43C)[C@H]12', 67.6),
  ('Cc1c(C(=O)NCCC(=O)NO)sc2ncnc(Nc3ccc(NC(=O)Nc4cccc(C(F)(F)F)c4)cc3)c12', 87.1);

Record growth for all entries; do not skip any.
1. COc1cccc(C(=O)NNc2nc(Cl)nc(N3CCN(C(c4ccccc4)c4ccccc4)CC3)n2)c1
2. C=C1C(=O)O[C@H]2[C@H]1CC/C(CNS(=O)(=O)c1cccc3ccccc13)=C\CC[C@@]1(C)O[C@@H]21
3. N#Cc1cccc(-c2ccc3c(c2)NC(=O)/C3=C\c2ccc[nH]2)c1
4. N#CC1=C(/N=C/c2ccccc2)Oc2c(ccc3ccccc23)C1c1ccc([N+](=O)[O-])cc1 (stereo not drawn)
5. COC(=O)c1ccc2c(c1)[n+](=O)c(C(C)=O)c(C(F)(F)F)n2[O-]

**Result**
[93.4, 21.9, 65.6, 59.5, -82]
